# experiment: Cell viability assay (WST-1)
# Type: cell-based, human
# test_conditions: human, 22B endometriotic stromal cells; 22B cells; AH6809 75 μM, AH23848 50 μM, alone or combined; vs control; read-out: Decrease of cell viability
assay_endpoint: cytotoxicity at 75 μM

Fill in the blank: the reported cytotoxicity at 75 μM of CC(C)Oc1ccc2c(=O)c3cc(C(=O)O)ccc3oc2c1 is ____. ~45%
